- System: Aspergillus fumigatus
- experimentDescription: Antimicrobial activity against Aspergillus fumigatus at 1.25 ug/mL by agar diffusion method
- Format: functional
- measurementSetup: read-out: IZ
We use 6 mm as the dividing line for zone of inhibition at 1.25 µg/mL: on or above the line is Met, below is Not met.

Worked examples follow.
c1ccc2c(c1)CCCc1nnc3nncn3c1-2 :: Not met
O=C1/C(=N/Nc2ccc([N+](=O)[O-])cc2)CCCc2ccccc21 :: Not met
Cc1cccc(N/N=C2\CCCc3ccccc3C2=O)c1 :: Met
Cc1ccc(N/N=C2\CCCc3ccccc3C2=O)cc1 :: Met
O=C1/C(=N/Nc2cccc([N+](=O)[O-])c2)CCCc2ccccc21 :: Met

Kindly consider the entry below.
Form field: zone of inhibition at 1.25 µg/mL at least 6 mm? Entry: CN(C/C=C/C#CC(C)(C)C)Cc1cccc2ccccc12 Met
